meta.source: patent US20210253718A1

Target: T1, FZD4 cysteine-rich domain (CRD), MYC-tagged and GPI-anchored on CHO cells (human, UniProt Q9ULV1 42-167, GPI anchor)
T1 construct: also called FZD4 CRD; CHO-myc-FZDGPI; not shown: MYC tag and GPI anchor signal
T1 sequence: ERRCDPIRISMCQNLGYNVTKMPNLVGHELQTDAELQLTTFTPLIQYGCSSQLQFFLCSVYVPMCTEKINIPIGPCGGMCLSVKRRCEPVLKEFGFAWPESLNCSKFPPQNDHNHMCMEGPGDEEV
Test: flow cytometry, CHO-CRD cells;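 note: flow cytometry of Fab binding to CHO cells overexpressing a Frizzled CRD, with binding defined as median fluorescence over twice that of CHO cells lacking any Frizzled CRD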

# Binder, median fluorescence
rows = [
    ("Fab-2933 (Fab, V domains shown, Fab; also called Fv-2933) VH: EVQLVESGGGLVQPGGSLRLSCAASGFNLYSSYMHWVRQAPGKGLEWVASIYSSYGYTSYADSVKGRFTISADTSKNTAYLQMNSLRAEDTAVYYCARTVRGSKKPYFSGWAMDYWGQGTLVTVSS VL: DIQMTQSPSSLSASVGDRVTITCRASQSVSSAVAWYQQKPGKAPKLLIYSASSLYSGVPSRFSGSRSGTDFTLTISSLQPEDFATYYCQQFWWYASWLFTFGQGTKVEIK", 46.4),
    ("Fab-2900 (Fab, V domains shown, Fab; also called Fv-2900) VH: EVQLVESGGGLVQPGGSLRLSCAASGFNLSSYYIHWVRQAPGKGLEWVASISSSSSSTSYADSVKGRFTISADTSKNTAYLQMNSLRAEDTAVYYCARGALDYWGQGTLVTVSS VL: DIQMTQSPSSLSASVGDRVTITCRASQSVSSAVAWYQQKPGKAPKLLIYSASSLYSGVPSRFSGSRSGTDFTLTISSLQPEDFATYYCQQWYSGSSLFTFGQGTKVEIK", 5.62),
    ("Fab-2921 (Fab, V domains shown, Fab) VH: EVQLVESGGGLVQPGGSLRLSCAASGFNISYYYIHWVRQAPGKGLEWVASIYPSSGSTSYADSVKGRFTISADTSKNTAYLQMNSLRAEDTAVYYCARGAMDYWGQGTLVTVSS VL: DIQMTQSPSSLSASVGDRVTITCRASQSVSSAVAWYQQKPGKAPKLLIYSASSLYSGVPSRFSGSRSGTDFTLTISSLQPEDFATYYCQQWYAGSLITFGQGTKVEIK", 4.1),
    ("Fab-2924 (Fab, V domains shown, Fab; also called Fv-2924) VH: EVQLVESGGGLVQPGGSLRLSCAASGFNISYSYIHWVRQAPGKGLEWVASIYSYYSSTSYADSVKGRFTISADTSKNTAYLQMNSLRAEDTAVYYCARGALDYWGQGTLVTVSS VL: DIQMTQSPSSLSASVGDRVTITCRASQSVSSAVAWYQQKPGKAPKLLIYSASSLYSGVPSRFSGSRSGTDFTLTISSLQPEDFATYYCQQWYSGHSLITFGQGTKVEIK", 6.38),
    ("Fab-2919 (Fab, V domains shown, Fab) VH: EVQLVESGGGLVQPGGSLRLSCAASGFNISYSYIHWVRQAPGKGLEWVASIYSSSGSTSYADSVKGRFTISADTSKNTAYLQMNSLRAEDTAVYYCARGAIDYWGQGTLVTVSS VL: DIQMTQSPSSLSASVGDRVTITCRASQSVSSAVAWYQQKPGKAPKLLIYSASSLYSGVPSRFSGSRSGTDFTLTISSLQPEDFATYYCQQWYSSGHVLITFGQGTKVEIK", 3.79),
    ("Fab-2914 (Fab, V domains shown, Fab; also called Fv-2914) VH: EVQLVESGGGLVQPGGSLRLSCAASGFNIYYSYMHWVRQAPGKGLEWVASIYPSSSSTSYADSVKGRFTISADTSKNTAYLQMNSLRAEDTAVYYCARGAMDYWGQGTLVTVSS VL: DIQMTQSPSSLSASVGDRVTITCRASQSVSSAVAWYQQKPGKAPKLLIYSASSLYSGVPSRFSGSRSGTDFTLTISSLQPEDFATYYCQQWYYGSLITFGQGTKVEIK", 5.52),
    ("Fab-2907 (Fab, V domains shown, Fab; also called Fv-2907) VH: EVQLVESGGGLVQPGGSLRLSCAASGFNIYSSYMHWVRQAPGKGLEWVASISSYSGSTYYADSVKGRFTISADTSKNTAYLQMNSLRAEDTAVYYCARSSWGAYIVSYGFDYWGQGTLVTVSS VL: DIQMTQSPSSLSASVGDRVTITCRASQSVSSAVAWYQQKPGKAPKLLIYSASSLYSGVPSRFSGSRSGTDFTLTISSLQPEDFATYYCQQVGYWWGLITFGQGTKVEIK", 3.96),
    ("Fab-2926 (Fab, V domains shown, Fab; also called Fv-2926) VH: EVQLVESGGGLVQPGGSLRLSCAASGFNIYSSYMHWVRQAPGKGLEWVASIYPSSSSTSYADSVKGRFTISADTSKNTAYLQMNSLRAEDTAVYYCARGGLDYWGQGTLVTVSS VL: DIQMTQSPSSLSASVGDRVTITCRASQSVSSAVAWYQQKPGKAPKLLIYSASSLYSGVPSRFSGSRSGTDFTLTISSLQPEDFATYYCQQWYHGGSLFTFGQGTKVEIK", 6.73),
    ("Fab-2917 (Fab, V domains shown, Fab; also called Fv-2917) VH: EVQLVESGGGLVQPGGSLRLSCAASGFNFSSSSIHWVRQAPGKGLEWVASISSSYGYTYYADSVKGRFTISADTSKNTAYLQMNSLRAEDTAVYYCARAVWYYWWVWGGFDYWGQGTLVTVSS VL: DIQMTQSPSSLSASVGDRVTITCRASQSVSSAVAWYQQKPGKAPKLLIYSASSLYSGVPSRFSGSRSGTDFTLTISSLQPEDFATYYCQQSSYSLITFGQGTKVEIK", 4.14),
    ("Fab-2925 (Fab, V domains shown, Fab; also called Fv-2925) VH: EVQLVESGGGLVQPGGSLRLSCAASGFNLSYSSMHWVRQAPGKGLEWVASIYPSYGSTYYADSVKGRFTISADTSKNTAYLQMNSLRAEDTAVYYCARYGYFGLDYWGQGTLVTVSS VL: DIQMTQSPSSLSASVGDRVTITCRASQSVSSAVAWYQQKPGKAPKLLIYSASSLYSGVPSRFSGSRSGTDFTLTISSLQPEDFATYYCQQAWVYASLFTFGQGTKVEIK", 4.53),
]
